Data origin, for the record: PubChem BioAssay AID720632

- assay-system: Caspase-6 (Homo sapiens) (UniProt P55212)
- Sequence (P55212 24-179 limits assumed): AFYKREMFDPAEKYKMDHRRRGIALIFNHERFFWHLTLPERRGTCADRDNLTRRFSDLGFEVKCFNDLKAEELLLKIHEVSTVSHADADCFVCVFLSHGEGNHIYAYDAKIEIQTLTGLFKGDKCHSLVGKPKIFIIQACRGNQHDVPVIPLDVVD
- Sequence (P55212 194-293 limits assumed): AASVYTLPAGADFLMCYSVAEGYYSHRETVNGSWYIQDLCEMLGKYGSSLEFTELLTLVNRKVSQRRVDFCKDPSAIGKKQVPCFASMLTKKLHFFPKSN
- assay-summary: inhibition of CASP6 peptide cleavage – biochemical, VEID-R110 fluorescence, cherry-pick, dose response (AID 720632)
- condition-summary: caspase-6, VEID-R110 fluorogenic substrate; at 26 µM (top of the series)
Calls of active or inactive are those of the source. No rule for the calls is given here.
experimental-readout: activity change, negative = inhibition

These solved cases illustrate the format of a correct answer.
{"compound": "O=C(ONC(=O)C1CCCCC1C(=O)NOC(=O)c1ccccc1)c1ccccc1 (centres undefined)", "activity change, negative = inhibition": "inactive"}
{"compound": "CCC1=NN(C(=O)c2ccccc2O)C(O)(c2ccccc2)C1 (centres undefined)", "activity change, negative = inhibition": "inactive"}
{"compound": "Nc1ccc(C(=O)N/N=C/c2cn(Cc3ccc(F)cc3)c3ccccc23)cc1", "activity change, negative = inhibition": "inactive"}
{"compound": "COc1ccccc1CNC(=O)COC(=O)c1ccc([N+](=O)[O-])o1", "activity change, negative = inhibition": "inactive"}
{"compound": "CCS(=O)(=O)c1nc(S(=O)(=O)c2ccc(Cl)cc2)c(N2CCOCC2)s1", "activity change, negative = inhibition": "inactive"}

Requested field: activity change, negative = inhibition. Item: `Cc1cc(C)c(NC(=O)COC(=O)c2ccc([N+](=O)[O-])s2)c(C)c1`
inactive

Can you check `CC(C)(C)NC(=O)C(=O)NN=C1CCCCCCCCCCC1` next?
inactive

Can you check `CCCN1C[C@H](C)[C@H](OC)CN(C)C(=O)c2ccc(NC(=O)c3ccccc3)cc2OC[C@H]1C` next?
inactive

----------
- assay-system: Caspase-6 (Homo sapiens) (UniProt P55212)
- assay-summary: inhibition of CASP6 peptide cleavage – biochemical, VEID-R110 fluorescence, cherry-pick, dose response (AID 720632)
- condition-summary: caspase-6, VEID-R110 fluorogenic substrate; at 26 µM (top of the series)
Activity calls are given as the source filed them. How the calls were made is not given here.
experimental-readout: activity change, negative = inhibition

{"compound": "O=C1NC(=O)C(Sc2ccccc2[N+](=O)[O-])C(=O)N1", "activity change, negative = inhibition": "inactive"}
{"compound": "N#CC1=C(N)Oc2cc(N)ccc2C1c1ccccc1 (stereo unspecified)", "activity change, negative = inhibition": "inactive"}
{"compound": "Cc1ccc(NC(=O)c2sc(C)nc2C)c(C)c1", "activity change, negative = inhibition": "inactive"}
{"compound": "COc1ccc(OC)c(NC(=O)Nc2ccc(O)c3ccccc23)c1", "activity change, negative = inhibition": "inactive"}
{"compound": "Nc1ccc2cn[nH]c2c1", "activity change, negative = inhibition": "inactive"}

Now for a further compound.
Requested field: activity change, negative = inhibition. Item: CCOc1ccc(N2CC(C(=O)NCC(=O)Nc3ccc(F)c(F)c3F)CC2=O)cc1 (stereo unspecified)
inactive
